# Target: mouse serum albumin (mouse), P07724
# Sequence (P07724 25-608 limits assumed): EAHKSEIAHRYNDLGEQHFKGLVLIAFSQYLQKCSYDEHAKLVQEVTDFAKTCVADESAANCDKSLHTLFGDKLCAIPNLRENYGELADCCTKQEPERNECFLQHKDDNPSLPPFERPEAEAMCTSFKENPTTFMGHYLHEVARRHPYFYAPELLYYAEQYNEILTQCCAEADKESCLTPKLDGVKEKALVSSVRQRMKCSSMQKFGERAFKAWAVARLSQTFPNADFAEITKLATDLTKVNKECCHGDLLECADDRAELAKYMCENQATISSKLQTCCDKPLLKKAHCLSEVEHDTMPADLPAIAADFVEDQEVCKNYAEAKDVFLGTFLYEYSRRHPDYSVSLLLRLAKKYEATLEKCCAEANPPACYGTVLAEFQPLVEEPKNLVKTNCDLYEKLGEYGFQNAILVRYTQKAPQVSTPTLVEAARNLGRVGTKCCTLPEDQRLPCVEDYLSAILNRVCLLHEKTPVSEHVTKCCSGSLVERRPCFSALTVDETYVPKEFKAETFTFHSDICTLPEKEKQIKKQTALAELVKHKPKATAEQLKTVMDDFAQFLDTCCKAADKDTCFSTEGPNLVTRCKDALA
# Test details: peptide competition for albumin
Readout: IC50 (nM)
The reply should contain only the number, in nM.

Ask: For the binder RLMEDICLARWGCLWEDD (modifications not checked) [SA13] , what IC50 is on record?
Result: 188
